System: PC-3
measurement-protocol: Antitumor cytotoxic activity against PC-3 cell line was determined
Assay type: functional
condition: Homo sapiens
assay-readout: GI50 (µg/mL)

structure: c1ccc(-c2cc(-c3cccs3)cc(-c3ccncc3)n2)nc1
assay-readout: GI50
unit-annotation: µg/mL
number: 0.22
--
structure: c1ccc(-c2cc(-c3ccccn3)nc(-c3ccccn3)c2)cc1
assay-readout: GI50
unit-annotation: µg/mL
number: 0.017
--
structure: c1ccc(-c2cc(-c3ccoc3)cc(-c3ccccn3)n2)nc1
assay-readout: GI50
unit-annotation: µg/mL
number: 0.0044
--
structure: c1ccc(-c2cc(-c3cccs3)cc(-c3cccnc3)n2)nc1
assay-readout: GI50
unit-annotation: µg/mL
number: 0.031
--
structure: c1ccc(-c2cc(-c3cccnc3)nc(-c3ccccn3)c2)cc1
assay-readout: GI50
unit-annotation: µg/mL
number: 0.28
--
structure: COc1cccc2c1C(=O)c1c(O)c3c(c(O)c1C2=O)C[C@@](O)(C(=O)CO)C[C@@H]3O[C@H]1C[C@H](N)[C@H](O)[C@H](C)O1
assay-readout: GI50
unit-annotation: µg/mL
number: 0.029
--
structure: c1ccc(-c2cccc(-c3ccccn3)n2)nc1
assay-readout: GI50
unit-annotation: µg/mL
number: 0.00073
--
structure: c1ccc(-c2cc(-c3ccsc3)cc(-c3cccnc3)n2)nc1
assay-readout: GI50
unit-annotation: µg/mL
number: 0.054
--
structure: c1ccc(-c2cc(-c3ccsc3)cc(-c3ccccn3)n2)nc1
assay-readout: GI50
unit-annotation: µg/mL
number: 0.0017
--
structure: c1ccc(-c2cc(-c3ccco3)cc(-c3ccccn3)n2)nc1
assay-readout: GI50
unit-annotation: µg/mL
number: 0.0025

###

Test system: A498
measurement-protocol: Antitumor cytotoxic activity against A-498 cell line was determined
Assay type: functional
condition: Homo sapiens
GI50 under 3 ng/mL gets TRUE, anything at or over 3 ng/mL gets FALSE.

molecule: c1ccc(-c2cc(-c3cccnc3)nc(-c3ccccn3)c2)cc1
category-label: FALSE

molecule: c1ccc(-c2cc(-c3cccs3)cc(-c3cccnc3)n2)nc1
category-label: TRUE

molecule: c1ccc(-c2cc(-c3cccs3)cc(-c3ccncc3)n2)nc1
category-label: FALSE

molecule: c1ccc(-c2cc(-c3ccoc3)cc(-c3ccccn3)n2)nc1
category-label: TRUE

molecule: c1ccc(-c2cccc(-c3ccccn3)n2)nc1 [TERPYRIDINE]
category-label: TRUE

molecule: c1ccc(-c2cc(-c3ccsc3)cc(-c3ccccn3)n2)nc1
category-label: TRUE

###

Readings of GI50 for the listed molecules
Tested on: SK-OV-3
measurement-protocol: Antitumor cytotoxic activity against SK-OV-3 cell line was determined
Type: functional
condition: Homo sapiens
assay-readout: GI50

molecule: c1ccc(-c2cc(-c3cccnc3)nc(-c3ccccn3)c2)cc1
assay-readout: GI50
result: 49.6 µg/mL
--
molecule: c1ccc(-c2cc(-c3ccoc3)cc(-c3ccccn3)n2)nc1
assay-readout: GI50
result: 0.6 µg/mL
--
molecule: COc1cccc2c1C(=O)c1c(O)c3c(c(O)c1C2=O)C[C@@](O)(C(=O)CO)C[C@@H]3O[C@H]1C[C@H](N)[C@H](O)[C@H](C)O1 [DOXORUBICIN]
assay-readout: GI50
result: 0.073 µg/mL
--
molecule: c1ccc(-c2cc(-c3cccs3)cc(-c3ccncc3)n2)nc1
assay-readout: GI50
result: 48.3 µg/mL
--
molecule: c1ccc(-c2cc(-c3ccco3)cc(-c3ccccn3)n2)nc1
assay-readout: GI50
result: 0.13 µg/mL
--
molecule: c1ccc(-c2cc(-c3ccsc3)cc(-c3cccnc3)n2)nc1
assay-readout: GI50
result: > 100 µg/mL
--
molecule: c1ccc(-c2cc(-c3ccccn3)nc(-c3ccccn3)c2)cc1
assay-readout: GI50
result: 0.12 µg/mL
--
molecule: c1ccc(-c2cc(-c3ccsc3)cc(-c3ccccn3)n2)nc1
assay-readout: GI50
result: 0.1 µg/mL
--
molecule: c1ccc(-c2cc(-c3cccs3)cc(-c3cccnc3)n2)nc1
assay-readout: GI50
result: 52 µg/mL
--
molecule: c1ccc(-c2cccc(-c3ccccn3)n2)nc1 [TERPYRIDINE]
assay-readout: GI50
result: 0.072 µg/mL
